Target: β1,3-N-acetylglucosaminyl transferase (G3) (Homo sapiens, UniProt Q9NY97)
Construct: made in house; host or cells: Sf21 insect cells infected with recombinant baculovirus from pVL1393-F2G3
Sequence (Q9NY97 31-397): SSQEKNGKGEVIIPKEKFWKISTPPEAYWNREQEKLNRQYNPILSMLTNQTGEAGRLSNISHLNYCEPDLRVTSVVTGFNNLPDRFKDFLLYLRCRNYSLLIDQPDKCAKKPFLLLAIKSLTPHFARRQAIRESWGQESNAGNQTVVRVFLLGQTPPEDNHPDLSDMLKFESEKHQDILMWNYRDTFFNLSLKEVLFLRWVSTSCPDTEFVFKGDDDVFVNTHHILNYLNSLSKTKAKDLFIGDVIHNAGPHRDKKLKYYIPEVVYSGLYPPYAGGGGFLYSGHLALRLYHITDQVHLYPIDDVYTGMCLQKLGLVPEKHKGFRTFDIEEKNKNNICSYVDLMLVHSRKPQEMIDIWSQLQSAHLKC
Assay: Substrate specificity of G3 with unlabeled oligosaccharides
Format: biochemical
Conditions: unlabeled substrate, 37° C., 2 hours, activity for LNnT defined as 100%
Observable: Relative activity (%) G3
Kindly provide the numeric value in % only, without the unit symbol.

CC(=O)N[C@H]1[C@H](O[C@H]2[C@@H](O)[C@@H](CO)O[C@@H](O[C@H]3[C@H](O)[C@@H](O)C(O)O[C@@H]3CO)[C@@H]2O)O[C@H](CO)[C@@H](O)[C@@H]1O[C@@H]1O[C@H](CO)[C@H](O)[C@H](O)[C@H]1O (stereo partly shown) :: 27
CC(=O)N[C@H]1C(O)O[C@H](CO)[C@@H](O[C@@H]2O[C@H](CO)[C@H](O)[C@H](O)[C@H]2O)[C@@H]1O (stereo partly shown) :: 21
OC[C@H]1O[C@@H](O[C@H]2[C@H](O)[C@@H](O)C(O)O[C@@H]2CO)[C@H](O)[C@@H](O)[C@H]1O (stereo partly shown) :: 128

Now for a further molecule.
[in] Which Relative activity (%) G3 value is on record for CC(=O)N[C@H]1[C@H](O[C@H]2[C@@H](O)[C@@H](CO)O[C@@H](O[C@H]3[C@H](O)[C@@H](O)C(O)O[C@@H]3CO)[C@@H]2O)O[C@H](CO)[C@@H](O[C@@H]2O[C@H](CO)[C@H](O)[C@H](O)[C@H]2O)[C@@H]1O (mixture of isomers) ?
[out] 100

* * *

Molecular target: β1,3-N-acetylglucosaminyl transferase (G7) (Homo sapiens)
Construct: made in house; host or cells: Sf21 insect cells infected with recombinant baculovirus from pVL1393-F2G7
Sequence (Q9C0J1 56-378): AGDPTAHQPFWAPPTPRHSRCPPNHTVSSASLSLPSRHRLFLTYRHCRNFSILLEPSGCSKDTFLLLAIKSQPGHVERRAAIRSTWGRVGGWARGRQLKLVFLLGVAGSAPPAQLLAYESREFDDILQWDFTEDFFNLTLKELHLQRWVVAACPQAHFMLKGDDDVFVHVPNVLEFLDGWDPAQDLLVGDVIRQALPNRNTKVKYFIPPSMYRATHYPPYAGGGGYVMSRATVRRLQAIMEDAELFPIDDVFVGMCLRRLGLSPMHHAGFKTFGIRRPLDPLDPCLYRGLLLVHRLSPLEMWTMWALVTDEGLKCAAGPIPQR
Assay: Substrate specificity of G7 with unlabeled oligosaccharides
Format: biochemical
Details: unlabeled substrate, 37° C., 15.5 hours, activity for LNnT defined as 100%
Observable: Relative activity (%) G7
Kindly provide the numeric value in % only, without the unit symbol.

Below: 3 molecules and their reported Relative activity (%) G7.
CC(=O)N[C@H]1[C@H](O[C@H]2[C@@H](O)[C@@H](CO)O[C@@H](O[C@H]3[C@H](O)[C@@H](O)C(O)O[C@@H]3CO)[C@@H]2O)O[C@H](CO)[C@@H](O[C@@H]2O[C@H](CO)[C@H](O)[C@H](O)[C@H]2O)[C@@H]1O (mixture of isomers) :: 100
OC[C@H]1O[C@@H](O[C@H]2[C@H](O)[C@@H](O)C(O)O[C@@H]2CO)[C@H](O)[C@@H](O)[C@H]1O (stereo partly shown) :: 32.6
CC(=O)N[C@H]1[C@H](O[C@H]2[C@@H](O)[C@@H](CO)O[C@@H](O[C@H]3[C@H](O)[C@@H](O)C(O)O[C@@H]3CO)[C@@H]2O)O[C@H](CO)[C@@H](O)[C@@H]1O[C@@H]1O[C@H](CO)[C@H](O)[C@H](O)[C@H]1O (stereo partly shown) :: 0

Now for a further molecule.
[in] Which Relative activity (%) G7 value is on record for CC(=O)N[C@H]1C(O)O[C@H](CO)[C@@H](O[C@@H]2O[C@H](CO)[C@H](O)[C@H](O)[C@H]2O)[C@@H]1O (stereo partly shown) ?
[out] 8.5

* * *

Recorded Relative activity (%) by entry
Target: β1,3-N-acetylglucosaminyl transferase (G4) (Homo sapiens, UniProt Q9Y2A9, R328H)
Construct: made in house; host or cells: Sf21 insect cells infected with recombinant baculovirus from pVL1393-F2G4
Sequence (Q9Y2A9 38-372 R328H): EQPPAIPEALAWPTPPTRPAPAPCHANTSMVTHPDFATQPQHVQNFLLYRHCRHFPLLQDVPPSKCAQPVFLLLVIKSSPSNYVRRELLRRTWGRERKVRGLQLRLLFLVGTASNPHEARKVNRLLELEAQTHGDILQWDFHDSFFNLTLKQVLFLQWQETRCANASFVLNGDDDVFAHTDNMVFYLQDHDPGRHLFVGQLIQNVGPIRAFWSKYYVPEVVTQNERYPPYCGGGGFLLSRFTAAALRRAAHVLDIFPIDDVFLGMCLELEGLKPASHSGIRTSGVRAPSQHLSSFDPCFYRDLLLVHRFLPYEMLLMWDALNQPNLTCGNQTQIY
Test: Substrate specificity of G4 with unlabeled oligosaccharides (HPAE/PAD)
Format: biochemical
Conditions: unlabeled substrate, 37° C., 16 hours, activity on LNnT defined as 100%
Kindly provide the numeric value in % only, without the unit symbol.

Below: 3 compounds and their reported Relative activity (%).
OC[C@H]1O[C@@H](O[C@H]2[C@H](O)[C@@H](O)C(O)O[C@@H]2CO)[C@H](O)[C@@H](O)[C@H]1O (stereo partly shown) [Lactose, lactose] :: 235
CC(=O)N[C@H]1[C@H](O[C@H]2[C@@H](O)[C@@H](CO)O[C@@H](O[C@H]3[C@H](O)[C@@H](O)C(O)O[C@@H]3CO)[C@@H]2O)O[C@H](CO)[C@@H](O[C@@H]2O[C@H](CO)[C@H](O)[C@H](O)[C@H]2O)[C@@H]1O (mixture of isomers) [LNnT, lacto-N-neotetraose] :: 100
CC(=O)N[C@H]1C(O)O[C@H](CO)[C@@H](O[C@@H]2O[C@H](CO)[C@H](O)[C@H](O)[C@H]2O)[C@@H]1O (stereo partly shown) [LacNAc, N-acetyllactosamine] :: 0

[in] Which Relative activity (%) value is on record for CC(=O)N[C@H]1[C@H](O[C@H]2[C@@H](O)[C@@H](CO)O[C@@H](O[C@H]3[C@H](O)[C@@H](O)C(O)O[C@@H]3CO)[C@@H]2O)O[C@H](CO)[C@@H](O)[C@@H]1O[C@@H]1O[C@H](CO)[C@H](O)[C@H](O)[C@H]1O (stereo partly shown) [LNT, lacto-N-tetraose] ?
[out] 114

* * *

Recorded Relative activity (%) by entry
Molecular target: β1,3-N-acetylglucosaminyl transferase (G3) (Homo sapiens, UniProt Q9NY97)
Construct: made in house; host or cells: Sf21 insect cells infected with recombinant baculovirus from pVL1393-F2G3
Test: Substrate specificity of G3 with pyridylaminated oligosaccharides
Assay type: biochemical
Details: pyridylaminated substrate, 37° C., 2 hours, activity on LNnT defined as 100%
Kindly provide the numeric value in % only, without the unit symbol.

Below: 3 compounds and their reported Relative activity (%).
CC(=O)N[C@H]1[C@H](O[C@H]2[C@@H](O)[C@@H](CO)O[C@@H](O[C@@H]([C@H](O[C@@H]3O[C@@H](C)[C@@H](O)[C@@H](O)[C@@H]3O)[C@@H](O)C=O)[C@H](O)CO)[C@@H]2O)O[C@H](CO)[C@@H](O[C@@H]2O[C@@H](C)[C@@H](O)[C@@H](O)[C@@H]2O)[C@@H]1O[C@@H]1O[C@H](CO)[C@H](O)[C@H](O)[C@H]1O [LNDFH-II, lacto-N-difucohexaose II] :: 0
CC(=O)N[C@H]1[C@H](O[C@H]2[C@@H](O)[C@@H](CO)O[C@@H](O[C@H]3[C@H](O)[C@@H](O)C(O)O[C@@H]3CO)[C@@H]2O)O[C@H](CO)[C@@H](O)[C@@H]1O[C@@H]1O[C@H](CO)[C@H](O)[C@H](O)[C@H]1O (stereo partly shown) [LNT, lacto-N-tetraose] :: 3.7
CC(=O)N[C@H]1[C@H](O[C@H]2[C@@H](O)[C@@H](CO)O[C@@H](O[C@@H]([C@H](O)[C@@H](O)C=O)[C@H](O)CO)[C@@H]2O)O[C@H](CO)[C@@H](O[C@@H]2O[C@@H](C)[C@@H](O)[C@@H](O)[C@@H]2O)[C@@H]1O[C@@H]1O[C@H](CO)[C@H](O)[C@H](O)[C@H]1O [LNFP-II, lacto-N-fucopentaose II] :: 0

Now for a further compound.
[in] Which Relative activity (%) value is on record for CC(=O)N[C@H]1[C@H](O[C@H]2[C@@H](O)[C@@H](CO)O[C@@H](O[C@H]3[C@H](O)[C@@H](O)C(O)O[C@@H]3CO)[C@@H]2O)O[C@H](CO)[C@@H](O[C@@H]2O[C@H](CO)[C@H](O)[C@H](O)[C@H]2O)[C@@H]1O (mixture of isomers) [LNnT, lacto-N-neotetraose] ?
[out] 100
